// reported pKi for each item listed
Target: NTF2 domain of G3BP1 (Homo sapiens, UniProt Q13283)
Sequence (Q13283 11-133 limits assumed): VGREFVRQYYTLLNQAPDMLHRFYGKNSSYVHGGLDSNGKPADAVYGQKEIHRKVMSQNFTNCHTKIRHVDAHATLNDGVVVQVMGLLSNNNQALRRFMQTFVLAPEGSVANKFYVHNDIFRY
Peptide text beside a SMILES is read from it.
Convention used: pKi is expressed as -log10 of the molar concentration.

CC[C@H](C)[C@H](NC(=O)[C@@H]1CCCN1C(=O)[C@@H]1CCCN1C(=O)[C@@H](NC(=O)[C@@H]1CCCN1C(C)=O)C(C)C)C(=O)N[C@@H](CCC(=O)O)C(=O)N[C@@H](Cc1ccccc1)C(=O)NCC(=O)N[C@H](C(=O)N[C@@H](CO)C(=O)N1CCC[C@H]1C(=O)N[C@@H](CCCCN)C(=O)N[C@@H](CC(=O)O)C(=O)N[C@@H](CO)C(=O)N[C@@H](CC(=O)O)C(=O)N[C@@H](Cc1ccc(O)cc1)C(N)=O)C(C)C [PRRC2B 1780-1794 Human] (Ac-PVPPIEFGVSPKDSDY-NH2) | 5.00

Query compound follows.
Input: Please give measured pKi of the following entry: CC[C@H](C)[C@H](NC(=O)[C@H](CCCNC(=N)N)NC(=O)[C@@H]1CCCN1C(=O)[C@H](C)NC(C)=O)C(=O)N[C@H](C(=O)N[C@@H](Cc1ccccc1)C(=O)NCC(=O)NCC(=O)N1CCC[C@H]1C(=O)N[C@@H](CO)C(=O)N[C@@H](CC(=O)O)C(=O)N[C@@H](CO)C(=O)N[C@H](C(=O)NCC(=O)N[C@@H](CO)C(=O)N[C@@H](Cc1ccc(O)cc1)C(N)=O)[C@@H](C)O)[C@@H](C)O [N 12-26 Sars-CoV2] (Ac-APRITFGGPSDSTGSY-NH2)
Output: 5.40
